# Assayed target: human wild type-CFTR (Homo sapiens)
# Sequence (P13569 whole entry): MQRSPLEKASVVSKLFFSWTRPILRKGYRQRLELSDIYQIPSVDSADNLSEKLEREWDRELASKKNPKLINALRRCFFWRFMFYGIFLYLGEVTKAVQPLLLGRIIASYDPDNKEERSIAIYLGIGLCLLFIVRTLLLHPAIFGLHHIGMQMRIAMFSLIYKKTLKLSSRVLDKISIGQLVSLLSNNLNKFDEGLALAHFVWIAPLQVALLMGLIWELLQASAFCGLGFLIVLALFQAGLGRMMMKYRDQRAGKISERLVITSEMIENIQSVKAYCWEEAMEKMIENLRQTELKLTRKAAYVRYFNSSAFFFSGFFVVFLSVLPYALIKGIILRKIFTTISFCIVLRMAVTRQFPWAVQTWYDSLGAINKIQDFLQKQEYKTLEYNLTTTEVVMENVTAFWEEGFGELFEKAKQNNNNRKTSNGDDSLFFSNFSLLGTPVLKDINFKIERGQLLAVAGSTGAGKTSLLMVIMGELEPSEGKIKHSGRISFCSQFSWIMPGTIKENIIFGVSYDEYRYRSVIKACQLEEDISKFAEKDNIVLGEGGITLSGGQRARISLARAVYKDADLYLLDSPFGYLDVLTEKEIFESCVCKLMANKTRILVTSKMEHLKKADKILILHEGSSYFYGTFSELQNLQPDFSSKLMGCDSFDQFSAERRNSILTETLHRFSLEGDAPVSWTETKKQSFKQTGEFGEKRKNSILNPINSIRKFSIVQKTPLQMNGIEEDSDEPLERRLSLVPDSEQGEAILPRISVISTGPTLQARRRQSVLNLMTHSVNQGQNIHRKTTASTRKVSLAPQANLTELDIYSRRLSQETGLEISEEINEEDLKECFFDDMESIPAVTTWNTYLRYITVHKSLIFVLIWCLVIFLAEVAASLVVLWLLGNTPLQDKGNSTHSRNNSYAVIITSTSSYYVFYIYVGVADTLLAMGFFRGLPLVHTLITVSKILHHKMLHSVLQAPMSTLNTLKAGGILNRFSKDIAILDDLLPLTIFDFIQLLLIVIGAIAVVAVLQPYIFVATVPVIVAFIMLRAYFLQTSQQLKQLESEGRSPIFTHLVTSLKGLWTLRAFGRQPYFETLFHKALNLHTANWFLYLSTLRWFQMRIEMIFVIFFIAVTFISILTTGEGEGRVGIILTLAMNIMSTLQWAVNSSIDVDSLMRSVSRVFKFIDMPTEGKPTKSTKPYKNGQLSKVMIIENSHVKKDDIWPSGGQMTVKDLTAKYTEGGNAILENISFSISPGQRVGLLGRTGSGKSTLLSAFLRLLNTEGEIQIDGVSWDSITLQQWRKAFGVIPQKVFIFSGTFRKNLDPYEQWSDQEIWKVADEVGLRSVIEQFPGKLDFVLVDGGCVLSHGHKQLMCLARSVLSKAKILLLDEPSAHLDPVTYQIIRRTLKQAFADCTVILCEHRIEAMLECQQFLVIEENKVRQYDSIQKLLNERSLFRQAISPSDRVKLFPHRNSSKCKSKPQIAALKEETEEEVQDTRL
# Method: Cell-based YFP assay
# Design: expressed in transfected cells; host or cells: CHO-K1 (Chinese hamster ovary)
# Assay conditions: CHO-K1 cells expressing human wild type-CFTR and YFP-H148Q/I152L; forskolin 20 μM = 100% activity; read-out: Cell-based YFP Assay (EC50) Concentration Range
Exercise: for every item that follows, state its recorded EC50.

Completed entries (count: 5):
Molecule	Assayed target	Observation type	Data value
COc1ccc(-c2ccnc3cc(C(=O)Nc4ccc(C(=O)N5CC6(CN(C)C6)C5)cc4)nn23)cc1OC [Compound 166]	human wild type-CFTR (Homo sapiens)	EC50	200 to 2000 nM
COc1ccc(-c2ccnc3cc(C(=O)N4CCN(C(=O)c5ccccc5)[C@@H](C(C)C)C4)nn23)cc1OC [Compound 376]	human wild type-CFTR (Homo sapiens)	EC50	< 200 nM
COc1ccc(-c2ccnc3cc(C(=O)Nc4ccc(C(=O)N5CCOCC5)c(OC)c4)nn23)cc1OC [Compound 217]	human wild type-CFTR (Homo sapiens)	EC50	≥ 2000 nM
COc1ccc(-c2ccnc3cc(C(=O)Nc4ccc(C(=O)O)cc4Cl)nn23)cc1OC [Compound 106]	human wild type-CFTR (Homo sapiens)	EC50	< 200 nM
COc1ccc(-c2ccnc3cc(C(=O)N4CCN(C(=O)c5ccncc5)[C@@H](C)C4)nn23)cc1OC [Compound 357]	human wild type-CFTR (Homo sapiens)	EC50	200 to 2000 nM

Consider the following items and state reported EC50 for each.
1. CCOC(=O)N1CCN(C(=O)c2cc3nccc(-c4ccc(OC)c(OC)c4)n3n2)CC1 [Compound 86]
2. COc1ccc(-c2ccnc3cc(C(=O)Nc4ccc(C(=O)N5CCN(C)[C@@H](C)C5)cc4)nn23)cc1OC [Compound 195]
3. CC[C@H]1CN(C(=O)c2cc3nccc(-c4ccc(OC)c(OC)c4)n3n2)CCN1 [Compound 371]
4. COc1ccc(-c2ccnc3cc(C(=O)N4CCc5cc(C(=O)O)ccc54)nn23)cc1OC [Compound 231]
5. COc1ccc(-c2ccnc3cc(C(=O)Nc4ccc(C(=O)N[C@@H](CC(C)C)C(=O)O)cc4)nn23)cc1OC [Compound 85]
6. COc1ccc(-c2ccnc3cc(C(=O)NC4CCCCC4)nn23)cc1OC [Compound 2]
7. COc1ccc(-c2ccnc3cc(C(=O)N4CCN(C(=O)c5ccccc5F)[C@@H](C)C4)nn23)cc1OC [Compound 368]

["200 to 2000 nM", "200 to 2000 nM", "200 to 2000 nM", "≥ 2000 nM", "200 to 2000 nM", "< 200 nM", "< 200 nM"]

---

# Assayed target: human wild type-CFTR (Homo sapiens)
# Method: Cell-based YFP assay
# Parameters: expressed in transfected cells; host or cells: CHO-K1 (Chinese hamster ovary)
# Assay conditions: CHO-K1 cells expressing human wild type-CFTR and YFP-H148Q/I152L; forskolin 20 μM = 100% activity; read-out: Cell-based YFP Assay (EC50) Concentration Range
Assign EC50 to each entry below.

COc1ccc(-c2ccnc3cc(C(=O)Nc4ccc(C(=O)NCCCN5CCOCC5)cc4)nn23)cc1OC < 200 nM
COc1ccc(-c2ccnc3cc(C(=O)N4CCc5ccc(C(=O)N6CCN(C)CC6)cc5C4)nn23)cc1OC ≥ 2000 nM
CCOc1ccc(NC(=O)c2cc3nccc(-c4ccc(OC)c(OC)c4)n3n2)nc1 < 200 nM
COc1ccc(-c2ccnc3cc(C(=O)Nc4ccc(CO)cc4)nn23)cc1OC < 200 nM
CCOc1ccc(NC(=O)c2cc3nccc(-c4ccc(OC(F)(F)F)c(Cl)c4)n3n2)cc1 ≥ 2000 nM
COC(=O)C1CN(C(=O)c2ccc(NC(=O)c3cc4nccc(-c5ccc(OC)c(OC)c5)n4n3)cc2)C1 < 200 nM
COc1ccc(-c2ccnc3cc(C(=O)N[C@H]4CC[C@H](C(=O)N5CCOCC5)CC4)nn23)cc1OC ≥ 2000 nM
COc1ccc(-c2ccnc3cc(C(=O)N4CCN(C)CC4)nn23)cc1OC ≥ 2000 nM

Provide reported EC50 for each item, in the same order as listed.
1. COc1ccc(-c2ccnc3cc(C(=O)N4CCN(C(=O)C5CC5)CC4)nn23)cc1OC
2. COC(=O)c1cc2nccc(-c3ccc(OC)c(OC)c3)n2n1
3. COc1ccc(-c2ccnc3cc(NC(=O)C45CCC(N6CCOCC6)(CC4)CC5)nn23)cc1OC
4. COC(=O)C[C@H](NC(=O)c1ccc(NC(=O)c2cc3nccc(-c4ccc(OC)c(OC)c4)n3n2)cc1)C(=O)OC
5. COc1ccc(-c2ccnc3cc(C(=O)Nc4ccc(C(=O)N[C@@H](Cc5ccccc5)C(=O)O)cc4)nn23)cc1OC
6. COc1ccc(-c2ccnc3cc(C(=O)N4CCN(C)[C@@H](C)C4)nn23)cc1OC
7. COCCOCOC(=O)c1ccc(NC(=O)c2cc3nccc(-c4ccc(OC)c(OC)c4)n3n2)cc1
8. COC(=O)c1ccc2c(c1)CCN2C(=O)c1cc2nccc(-c3ccc(OC)c(OC)c3)n2n1

200 to 2000 nM
200 to 2000 nM
≥ 2000 nM
< 200 nM
200 to 2000 nM
≥ 2000 nM
< 200 nM
< 200 nM
